assay: in vitro; conditions: CD-1, mouse, liver microsomes, pH 7.4

compound: CN1CC2CCC(C1)N2Cc1ccc(-c2cnc3[nH]cc(-c4cccc(Cl)c4)c3c2)cc1 [Compound 12f]
units of measure: min
qualifying sign: =
half-life at 20 μM: 158

compound: OCCN1CCN(Cc2ccc(-c3cnc4[nH]cc(-c5cccc(Cl)c5)c4c3)cc2)CC1 [Compound 12k]
units of measure: min
qualifying sign: >
half-life at 20 μM: 120

compound: COc1ccccc1-c1c[nH]c2ncc(-c3ccc(CN4CCN(C)CC4)cc3)cc12 [Compound 7at]
units of measure: min
qualifying sign: >
half-life at 20 μM: 30

compound: CN1CCN(Cc2ccc(-c3cnc4[nH]cc(-c5cccc6[nH]ncc56)c4c3)cc2)CC1 [Compound 7aa]
units of measure: min
qualifying sign: =
half-life at 20 μM: 9

compound: CN1CCN(Cc2ccc(-c3cnc4[nH]cc(-c5cccc(F)c5)c4c3)cc2)CC1 [Compound 7y]
units of measure: min
qualifying sign: >
half-life at 20 μM: 30

compound: CN1CCN(Cc2ccc(-c3cnc4[nH]cc(-c5ccc6[nH]ccc6c5)c4c3)cc2)CC1 [Compound 1, reference compound]
units of measure: min
qualifying sign: =
half-life at 20 μM: 7.8

compound: CN1CCN(Cc2ccc(-c3cnc4[nH]cc(-c5cccc(Cl)c5)c4c3)cc2)CC1 [Compound 7ad]
units of measure: min
qualifying sign: >
half-life at 20 μM: 30

----------
target: HGK/MAP4K4 (Homo sapiens); assay: Radiolabeled ATP kinase assay (Reaction Biology Corp.), HGK; format: biochemical; parameters: purchased Reaction Biology Corp; conditions: [Cmpd] 0.1 μM; 10 μM ATP; read-out: % Enzyme Activity (relative to DMSO controls), HGK/MAP4K4, Data 1
Sequence (O95819 whole entry): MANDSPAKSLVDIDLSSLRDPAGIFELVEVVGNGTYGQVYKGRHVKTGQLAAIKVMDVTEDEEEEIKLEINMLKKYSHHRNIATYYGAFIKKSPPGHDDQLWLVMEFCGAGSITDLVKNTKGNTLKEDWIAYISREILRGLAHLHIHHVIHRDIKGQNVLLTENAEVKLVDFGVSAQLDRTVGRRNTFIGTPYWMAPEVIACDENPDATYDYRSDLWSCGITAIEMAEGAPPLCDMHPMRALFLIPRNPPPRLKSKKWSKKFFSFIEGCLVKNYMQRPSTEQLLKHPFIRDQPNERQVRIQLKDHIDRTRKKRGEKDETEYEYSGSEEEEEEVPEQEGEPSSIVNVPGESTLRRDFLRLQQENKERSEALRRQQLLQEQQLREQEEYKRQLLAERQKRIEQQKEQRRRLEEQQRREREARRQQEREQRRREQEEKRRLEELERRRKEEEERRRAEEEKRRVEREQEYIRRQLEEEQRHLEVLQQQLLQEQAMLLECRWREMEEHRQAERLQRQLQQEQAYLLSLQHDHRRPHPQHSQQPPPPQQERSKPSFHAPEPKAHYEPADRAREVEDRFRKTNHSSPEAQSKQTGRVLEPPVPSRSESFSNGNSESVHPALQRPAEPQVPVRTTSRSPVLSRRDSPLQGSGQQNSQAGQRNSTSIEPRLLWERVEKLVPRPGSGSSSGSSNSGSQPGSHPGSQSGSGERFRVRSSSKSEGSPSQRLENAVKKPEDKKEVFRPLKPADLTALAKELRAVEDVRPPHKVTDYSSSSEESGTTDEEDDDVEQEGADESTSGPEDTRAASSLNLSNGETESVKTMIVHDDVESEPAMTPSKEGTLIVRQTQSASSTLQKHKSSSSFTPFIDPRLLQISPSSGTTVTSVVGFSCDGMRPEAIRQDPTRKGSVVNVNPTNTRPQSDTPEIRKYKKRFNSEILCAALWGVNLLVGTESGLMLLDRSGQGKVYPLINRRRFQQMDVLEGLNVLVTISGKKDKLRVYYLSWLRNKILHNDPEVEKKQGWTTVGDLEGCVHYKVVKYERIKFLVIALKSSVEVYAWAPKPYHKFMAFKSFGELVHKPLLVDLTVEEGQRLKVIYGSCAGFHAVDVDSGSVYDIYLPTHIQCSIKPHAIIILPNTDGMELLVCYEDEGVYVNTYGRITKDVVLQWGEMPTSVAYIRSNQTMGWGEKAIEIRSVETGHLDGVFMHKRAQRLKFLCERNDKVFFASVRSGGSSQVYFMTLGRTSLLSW
remaining activity at 0.1 µM values by entry
parameter measured: remaining activity at 0.1 µM (%)

molecule: C[C@@H](NC(=O)Nc1cccc(-c2c[nH]c3ncc(-c4ccc(CN5CCN(C)CC5)cc4)cc23)c1)c1ccccc1
target: HGK/MAP4K4 (Homo sapiens)
parameter measured: remaining activity at 0.1 µM
units of measure: %
measured: 78.7
--
molecule: Cc1nn(C)c(C)c1-c1c[nH]c2ncc(-c3ccc(CN4CCN(C)CC4)cc3)cc12
target: HGK/MAP4K4 (Homo sapiens)
parameter measured: remaining activity at 0.1 µM
units of measure: %
measured: 106
--
molecule: CN1CCN(Cc2ccc(-c3cnc4[nH]cc(-c5ccc6c(c5)OCCO6)c4c3)cc2)CC1
target: HGK/MAP4K4 (Homo sapiens)
parameter measured: remaining activity at 0.1 µM
units of measure: %
measured: 4.25
--
molecule: CN1CCN(Cc2ccc(-c3cnc4[nH]cc(-c5ccc(CN6CCOCC6)s5)c4c3)cc2)CC1
target: HGK/MAP4K4 (Homo sapiens)
parameter measured: remaining activity at 0.1 µM
units of measure: %
measured: 33.4
--
molecule: CN1CCN(Cc2ccc(-c3cnc4[nH]cc(-c5cccc(NC(=O)NCc6ccco6)c5)c4c3)cc2)CC1
target: HGK/MAP4K4 (Homo sapiens)
parameter measured: remaining activity at 0.1 µM
units of measure: %
measured: 79
--
molecule: CN1CCN(Cc2ccc(-c3cnc4[nH]cc(-c5ccncc5)c4c3)cc2)CC1
target: HGK/MAP4K4 (Homo sapiens)
parameter measured: remaining activity at 0.1 µM
units of measure: %
measured: 29.9
--
molecule: CN1CCN(Cc2ccc(-c3cnc4[nH]cc(-c5cccc(O)c5)c4c3)cc2)CC1
target: HGK/MAP4K4 (Homo sapiens)
parameter measured: remaining activity at 0.1 µM
units of measure: %
measured: 1.23
--
molecule: COC(=O)Nc1ccc(-c2c[nH]c3ncc(-c4ccc(CN5CCN(C)CC5)cc4)cc23)cc1
target: HGK/MAP4K4 (Homo sapiens)
parameter measured: remaining activity at 0.1 µM
units of measure: %
measured: 10.2
--
molecule: CN1CCN(Cc2ccc(-c3cnc4[nH]cc(-c5ccoc5)c4c3)cc2)CC1
target: HGK/MAP4K4 (Homo sapiens)
parameter measured: remaining activity at 0.1 µM
units of measure: %
measured: 4.46
--
molecule: CN1CCN(Cc2ccc(-c3cnc4[nH]cc(-c5cccc(OCc6ccccc6)c5)c4c3)cc2)CC1
target: HGK/MAP4K4 (Homo sapiens)
parameter measured: remaining activity at 0.1 µM
units of measure: %
measured: 27.4
--
molecule: CN1CCN(Cc2ccc(-c3cnc4[nH]cc(-c5ccc(C#N)cc5)c4c3)cc2)CC1
target: HGK/MAP4K4 (Homo sapiens)
parameter measured: remaining activity at 0.1 µM
units of measure: %
measured: 29.3
--
molecule: CN1CCN(Cc2ccc(-c3cnc4[nH]cc(-c5ccc(N)nc5)c4c3)cc2)CC1
target: HGK/MAP4K4 (Homo sapiens)
parameter measured: remaining activity at 0.1 µM
units of measure: %
measured: 10.8
--
molecule: CN1CCN(Cc2ccc(-c3cnc4[nH]cc(-c5cccc([N+](=O)[O-])c5)c4c3)cc2)CC1
target: HGK/MAP4K4 (Homo sapiens)
parameter measured: remaining activity at 0.1 µM
units of measure: %
measured: 1.56
--
molecule: CN1CCN(Cc2ccc(-c3cnc4[nH]cc(-c5cccc(C(F)(F)F)c5)c4c3)cc2)CC1
target: HGK/MAP4K4 (Homo sapiens)
parameter measured: remaining activity at 0.1 µM
units of measure: %
measured: 4.65
--
molecule: CN1CCN(Cc2ccc(-c3cnc4[nH]cc(-c5ccc(N)cc5)c4c3)cc2)CC1
target: HGK/MAP4K4 (Homo sapiens)
parameter measured: remaining activity at 0.1 µM
units of measure: %
measured: 7.41
--
molecule: CN1CCN(Cc2ccc(-c3cnc4[nH]cc(-c5cccc6[nH]ncc56)c4c3)cc2)CC1
target: HGK/MAP4K4 (Homo sapiens)
parameter measured: remaining activity at 0.1 µM
units of measure: %
measured: -1.36
--
molecule: Cc1cc(-c2c[nH]c3ncc(-c4ccc(CN5CCN(C)CC5)cc4)cc23)cnc1N
target: HGK/MAP4K4 (Homo sapiens)
parameter measured: remaining activity at 0.1 µM
units of measure: %
measured: 5.45
--
molecule: CN1CCN(Cc2ccc(-c3cnc4[nH]cc(-c5ccc(S(C)(=O)=O)nc5)c4c3)cc2)CC1
target: HGK/MAP4K4 (Homo sapiens)
parameter measured: remaining activity at 0.1 µM
units of measure: %
measured: 52.3
--
molecule: CN1CCN(Cc2ccc(-c3cnc4[nH]cc(-c5cnn(C)c5)c4c3)cc2)CC1
target: HGK/MAP4K4 (Homo sapiens)
parameter measured: remaining activity at 0.1 µM
units of measure: %
measured: 37
--
molecule: Cc1ccc(S(=O)(=O)n2cc(-c3ccc4[nH]ccc4c3)c3cc(-c4ccc(C=O)cc4)cnc32)cc1
target: HGK/MAP4K4 (Homo sapiens)
parameter measured: remaining activity at 0.1 µM
units of measure: %
measured: 85.5
--
molecule: COCCNC(=O)Nc1cccc(-c2c[nH]c3ncc(-c4ccc(CN5CCN(C)CC5)cc4)cc23)c1
target: HGK/MAP4K4 (Homo sapiens)
parameter measured: remaining activity at 0.1 µM
units of measure: %
measured: 65
--
molecule: CN1CCN(Cc2ccc(-c3cnc4[nH]cc(-c5cnc(N)nc5)c4c3)cc2)CC1
target: HGK/MAP4K4 (Homo sapiens)
parameter measured: remaining activity at 0.1 µM
units of measure: %
measured: 16.5
--
molecule: CCOc1ccc(-c2c[nH]c3ncc(-c4ccc(CN5CCN(C)CC5)cc4)cc23)cn1
target: HGK/MAP4K4 (Homo sapiens)
parameter measured: remaining activity at 0.1 µM
units of measure: %
measured: 42.8
--
molecule: CN1CCN(Cc2ccc(-c3cnc4[nH]cc(-c5ccc6[nH]ccc6c5)c4c3)cc2)CC1 [Compound 1, reference compound]
target: HGK/MAP4K4 (Homo sapiens)
parameter measured: remaining activity at 0.1 µM
units of measure: %
measured: 5.23
--
molecule: CNC(=O)Nc1cccc(-c2c[nH]c3ncc(-c4ccc(CN5CCN(C)CC5)cc4)cc23)c1
target: HGK/MAP4K4 (Homo sapiens)
parameter measured: remaining activity at 0.1 µM
units of measure: %
measured: 14.2
--
molecule: CN1CCN(Cc2ccc(-c3cnc4[nH]cc(-c5ccc(NC(=O)NC6CCCCC6)cc5)c4c3)cc2)CC1
target: HGK/MAP4K4 (Homo sapiens)
parameter measured: remaining activity at 0.1 µM
units of measure: %
measured: 58.5
--
molecule: COC(=O)Nc1cccc(-c2c[nH]c3ncc(-c4ccc(CN5CCN(C)CC5)cc4)cc23)c1
target: HGK/MAP4K4 (Homo sapiens)
parameter measured: remaining activity at 0.1 µM
units of measure: %
measured: 6.76
--
molecule: CN1CCN(Cc2ccc(-c3cnc4[nH]cc(-c5cccc6c5oc5ccccc56)c4c3)cc2)CC1
target: HGK/MAP4K4 (Homo sapiens)
parameter measured: remaining activity at 0.1 µM
units of measure: %
measured: 81.6
--
molecule: CN1CC2CCC(C1)N2Cc1ccc(-c2cnc3[nH]cc(-c4cccc5[nH]ncc45)c3c2)cc1 [Compound 12e]
target: HGK/MAP4K4 (Homo sapiens)
parameter measured: remaining activity at 0.1 µM
units of measure: %
measured: 0.99
--
molecule: CN1CCN(Cc2ccc(-c3cnc4[nH]cc(-c5ccccc5Cl)c4c3)cc2)CC1
target: HGK/MAP4K4 (Homo sapiens)
parameter measured: remaining activity at 0.1 µM
units of measure: %
measured: 3.61
--
molecule: CN1CCN(Cc2ccc(-c3cnc4[nH]cc(-c5cccc(Cl)c5)c4c3)cc2)CC1
target: HGK/MAP4K4 (Homo sapiens)
parameter measured: remaining activity at 0.1 µM
units of measure: %
measured: 2.92
